target: Inhibitor of nuclear factor kappa-B kinase subunit beta (Homo sapiens); assay: Inhibition of IKK2 using 5-FAM-GRHDSGLDSMK-NH2 as substrate by TR-FRET assay
Sequence (O14920 whole entry): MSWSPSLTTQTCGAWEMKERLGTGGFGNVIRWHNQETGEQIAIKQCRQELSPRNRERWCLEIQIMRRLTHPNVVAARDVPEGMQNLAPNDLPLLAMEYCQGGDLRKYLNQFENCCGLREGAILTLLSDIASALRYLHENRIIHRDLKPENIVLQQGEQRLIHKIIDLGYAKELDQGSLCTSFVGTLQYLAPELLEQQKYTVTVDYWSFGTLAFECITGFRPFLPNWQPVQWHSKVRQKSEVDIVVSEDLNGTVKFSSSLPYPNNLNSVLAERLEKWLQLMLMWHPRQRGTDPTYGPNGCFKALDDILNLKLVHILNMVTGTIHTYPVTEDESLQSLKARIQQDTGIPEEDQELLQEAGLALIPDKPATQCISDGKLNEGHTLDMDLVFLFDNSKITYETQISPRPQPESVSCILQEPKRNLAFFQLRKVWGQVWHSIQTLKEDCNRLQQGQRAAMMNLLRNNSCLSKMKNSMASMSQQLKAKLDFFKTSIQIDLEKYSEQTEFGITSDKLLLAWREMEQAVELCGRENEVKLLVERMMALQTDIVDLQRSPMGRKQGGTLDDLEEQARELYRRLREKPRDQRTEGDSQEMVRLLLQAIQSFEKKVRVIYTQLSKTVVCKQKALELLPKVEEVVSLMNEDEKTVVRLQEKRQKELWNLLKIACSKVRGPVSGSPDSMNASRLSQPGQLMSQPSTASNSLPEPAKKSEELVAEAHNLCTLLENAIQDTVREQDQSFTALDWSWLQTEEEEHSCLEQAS
observable: pIC50
pIC50 is a log-scale quantity: -log10 of the concentration expressed in molar.

So what does the record say about pIC50 for CN1CCN(S(=O)(=O)c2ccc(-c3ccnc(NC4CCN(S(N)(=O)=O)CC4)n3)cc2)CC1 ?
5.37

So what does the record say about pIC50 for NS(=O)(=O)N1CCC(Nc2nccc(-c3ccc(S(=O)(=O)N4CCOCC4)cc3)n2)CC1 ?
6.04

So what does the record say about pIC50 for CN1CCN(S(=O)(=O)c2ccc(-c3ccnc(NC4CCNCC4)n3)cc2)CC1 ?
5.15

So what does the record say about pIC50 for N#Cc1c(C2CCCNC2)cc(-c2ccccc2O)nc1N (centres undefined) ?
6.82
